// D(2) dopamine receptor (Homo sapiens, UniProt P14416) pKi records
pKi: −log10 of the molar value.

1. CCN1C(=O)C(CC)(N2CCN(Cc3ccc(C)cc3)CC2)c2ccccc21 (configuration not stated) = < 6.00
2. CCN1C(=O)C(CC)(N2CCN(Cc3ccc(Cl)cc3)CC2)c2ccccc21 (configuration not stated) = < 6.00
3. O=C1Nc2ccccc2C1N1CCN(Cc2ccc(Cl)cc2)CC1 (configuration not stated) = < 6.00
4. CN1C(=O)C(N2CCN(Cc3ccc(Cl)cc3)CC2)Cc2ccccc21 (configuration not stated) = 6.88
5. CN1C(=O)C(C)(N2CCN(Cc3ccc(Cl)cc3)CC2)c2ccccc21 (configuration not stated) = < 6.00

# map each molecule to its pKi
1. CN1C(=O)C(N2CCN(Cc3ccc(Cl)cc3)CC2)CCc2ccccc21 (configuration not stated)
2. CN(C(=O)CN1CCN(Cc2ccc(Cl)cc2)CC1)c1ccccc1

[5.13, "< 6.00"]
